# measurement.conditions: in isopropanol, 283.2 K
reported.property: solubility (mole fraction)
Output spec: single numeric token, no unit.

Query: solubility (mole fraction) for `COC(=O)[C@@H](N)Cc1c[nH]c2ccccc12.Cl` ?
Result: 0.00109

---

# measurement.conditions: in methanol, 323.2 K
reported.property: solubility (mole fraction)
Output spec: single numeric token, no unit.

Query: solubility (mole fraction) for `COC(=O)[C@@H](N)Cc1c[nH]c2ccccc12.Cl` ?
Result: 0.0478

---

# measurement.conditions: in ethyl acetate, 318.2 K
reported.property: solubility (mole fraction)
Output spec: single numeric token, no unit.

Query: solubility (mole fraction) for `COC(=O)[C@@H](N)Cc1c[nH]c2ccccc12.Cl` ?
Result: 0.000226

---

# measurement.conditions: in sec-butanol, 308.2 K
reported.property: solubility (mole fraction)
Output spec: single numeric token, no unit.

Query: solubility (mole fraction) for `COC(=O)[C@@H](N)Cc1c[nH]c2ccccc12.Cl` ?
Result: 0.00206

---

# measurement.conditions: in ethanol, 318.2 K
reported.property: solubility (mole fraction)
Output spec: single numeric token, no unit.

Query: solubility (mole fraction) for `COC(=O)[C@@H](N)Cc1c[nH]c2ccccc12.Cl` ?
Result: 0.0108

---

# measurement.conditions: in methanol, 288.2 K
reported.property: solubility (mole fraction)
Output spec: single numeric token, no unit.

Query: solubility (mole fraction) for `COC(=O)[C@@H](N)Cc1c[nH]c2ccccc12.Cl` ?
Result: 0.0301

---

# measurement.conditions: in methanol, 308.2 K
reported.property: solubility (mole fraction)
Output spec: single numeric token, no unit.

Query: solubility (mole fraction) for `COC(=O)[C@@H](N)Cc1c[nH]c2ccccc12.Cl` ?
Result: 0.0379

---

# measurement.conditions: in ethyl acetate, 308.2 K
reported.property: solubility (mole fraction)
Output spec: single numeric token, no unit.

Query: solubility (mole fraction) for `COC(=O)[C@@H](N)Cc1c[nH]c2ccccc12.Cl` ?
Result: 0.000134

---

# measurement.conditions: in 2-butanone, 313.2 K
reported.property: solubility (mole fraction)
Output spec: single numeric token, no unit.

Query: solubility (mole fraction) for `COC(=O)[C@@H](N)Cc1c[nH]c2ccccc12.Cl` ?
Result: 0.000748

---

# measurement.conditions: in methanol, 313.2 K
reported.property: solubility (mole fraction)

Query: solubility (mole fraction) for `COC(=O)[C@@H](N)Cc1c[nH]c2ccccc12.Cl` ?
Result: 0.0403

---

# measurement.conditions: in 2-butanone, 323.2 K
reported.property: solubility (mole fraction)
Output spec: single numeric token, no unit.

Query: solubility (mole fraction) for `COC(=O)[C@@H](N)Cc1c[nH]c2ccccc12.Cl` ?
Result: 0.00141

---

# measurement.conditions: in 2-butanone, 318.2 K
reported.property: solubility (mole fraction)
Output spec: single numeric token, no unit.

Query: solubility (mole fraction) for `COC(=O)[C@@H](N)Cc1c[nH]c2ccccc12.Cl` ?
Result: 0.001

---

# measurement.conditions: in acetonitrile, 308.2 K
reported.property: solubility (mole fraction)
Output spec: single numeric token, no unit.

Query: solubility (mole fraction) for `COC(=O)[C@@H](N)Cc1c[nH]c2ccccc12.Cl` ?
Result: 0.000101

---

# measurement.conditions: in isobutanol, 283.2 K
reported.property: solubility (mole fraction)
Output spec: single numeric token, no unit.

Query: solubility (mole fraction) for `COC(=O)[C@@H](N)Cc1c[nH]c2ccccc12.Cl` ?
Result: 0.00135
